test system: A549; experiment: Mammalian cell line specificity assay (alamar blue); assay type: cell-based, human; conditions: Homo sapiens, A549; 44–46 h, alamar blue; read-out: A549 EC50 (AVE±SD)
pEC50: −log10 of the molar value.
The reader will find reported pEC50 values listed item by item below.
Readout label: pEC50

[
  {
    "Compound": "CCN(CC)C(=S)SSC(=S)N(CC)CC",
    "Observed result": "< 4.30"
  },
  {
    "Compound": "CN(C)CCOc1ccccc1Cc1ccccc1 [Phenytoloxamine, reference compound]",
    "Observed result": "< 4.30"
  },
  {
    "Compound": "C[C@@H]1[C@H](O)[C@@H](C)/C=C/C=C/C=C/C=C/C=C/C=C/C=C/[C@H](O[C@@H]2O[C@H](C)[C@@H](O)[C@H](N)[C@@H]2O)C[C@@H]2O[C@](O)(C[C@@H](O)C[C@@H](O)[C@H](O)CC[C@@H](O)C[C@@H](O)CC(=O)O[C@H]1C)C[C@H](O)[C@H]2C(=O)O [Amphotericin B, reference compound]",
    "Observed result": "< 4.30"
  },
  {
    "Compound": "N[C@H](C(=O)O)[C@@H]1CC(Cl)=NO1 [Acivicin, reference compound]",
    "Observed result": 5.36
  },
  {
    "Compound": "C[C@@]1(CO)[C@H](O)CC[C@@]2(C)[C@H]1CC[C@H]1C[C@@H]3C[C@@]12CC[C@]3(O)CO [Aphidicolin, reference compound]",
    "Observed result": "< 4.30"
  }
]
